# Tested on: H358
# assay_details: Anti-proliferation 2D CTG test (H358)
# Assay type: cell-based
# measurement_parameters: H358 cells, 1500 cells/well, 5 days incubation with compound, CTG readout
Reported IC50 values for the following compounds.
endpoint: IC50 (nM)

compound: C=CC(=O)N1C[C@H](C)N(c2nc(=O)n3c4nc(c(F)cc24)-c2c(ccc(Cl)c2F)OCC(O)C(OCC)c2ccnc(C(C)C)c2-3)C[C@H]1C (stereo partly drawn) [Example 70]
measured: 16

compound: C=CC(=O)N1C[C@H](C)N(c2nc(=O)n3c4nc(c(F)cc24)-c2c(F)cccc2OCC(O)C(O)c2ccnc(C(C)C)c2-3)C[C@H]1C (stereo partly drawn) [Example 3]
measured: 1250

compound: C=CC(=O)N1CCN(c2nc(=O)n3c4nc(c(F)cc24)-c2c(F)cccc2OCC(O)C(OCC)c2ccnc(C(C)C)c2-3)[C@@H](C)C1 (stereo partly drawn) [Example 28]
measured: 28

----------
# System: MIA PaCa-2
# assay_details: Anti-proliferation 2D CTG test (MIA PaCa-2)
# Format: cell-based
# measurement_parameters: MIAPACA-2 cells, 500 cells/well, 5 days incubation with compound, CTG readout

compound: C=CC(=O)N1CCN(c2nc(=O)n3c4nc(c(F)cc24)-c2c(F)cccc2OCC(OCCF)C(O)c2ccnc(C(C)C)c2-3)[C@@H](C)C1 (stereo partly drawn) [Example 25]
IC50 / nM: 15
//
compound: C=CC(=O)N1C[C@H](C)N(c2nc(=O)n3c4nc(c(F)cc24)-c2c(F)cccc2OCC(O)C(OCC)c2ccnc(C(C)C)c2-3)C[C@H]1C (stereo partly drawn) [Example 58]
IC50 / nM: 314
//
compound: C=CC(=O)N1CCN(c2nc(=O)n3c4nc(c(F)cc24)-c2c(F)cccc2OCC(OC(C)=O)C(OC(C)=O)c2ccnc(C(C)C)c2-3)[C@@H](C)C1 (stereo partly drawn) [Example 18-S]
IC50 / nM: 266

----------
Some compounds, each annotated with its measured pIC50.
# Tested on: H358
# assay_details: Anti-proliferation 2D CTG test (H358)
# Type: cell-based
# measurement_parameters: H358 cells, 1500 cells/well, 5 days incubation with compound, CTG readout
pIC50: −log10 of the molar value.

compound: C=CC(=O)N1C[C@H](C)N(c2nc(=O)n3c4nc(c(F)cc24)-c2c(ccc(Cl)c2F)OCC(OCC)C(O)c2ccnc(C(C)C)c2-3)C[C@H]1C (stereo partly drawn) [Example 78]
pIC50: 8.30
//
compound: C=CC(=O)N1C[C@H](C)N(c2nc(=O)n3c4nc(c(F)cc24)-c2c(F)cccc2OCC(O)C(OCC)c2ccnc(C(C)C)c2-3)C[C@H]1C (stereo partly drawn) [Example 58]
pIC50: 6.34
//
compound: C=CC(=O)N1CCN(c2nc(=O)n3c4nc(c(F)cc24)-c2c(ccc(Cl)c2F)OCC(O)C(OCC)c2ccnc(C(C)C)c2-3)[C@@H](C)C1 (stereo partly drawn) [Example 68]
pIC50: 7.57
//
compound: C=CC(=O)N1CCN(c2nc(=O)n3c4nc(c(F)cc24)-c2c(F)cccc2OCC(OCC(F)F)C(O)c2ccnc(C(C)C)c2-3)[C@@H](C)C1 (stereo partly drawn) [Example 53]
pIC50: 7.77
//
compound: C=CC(=O)N1CCN(c2nc(=O)n3c4nc(c(F)cc24)-c2c(F)cccc2OCC(O)C(OCC)c2ccnc(C(C)C)c2-3)[C@@H](C)C1 (stereo partly drawn) [Example 43]
pIC50: 8.30
//
compound: C=CC(=O)N1CCN(c2nc(=O)n3c4nc(c(F)cc24)-c2c(F)cccc2OCC(OC(C)=O)C(OC(C)=O)c2ccnc(C(C)C)c2-3)[C@@H](C)C1 (stereo partly drawn) [Example 18-S]
pIC50: 6.45
//
compound: C=CC(=O)N1CCN(c2nc(=O)n3c4nc(c(F)cc24)-c2c(F)cccc2OCC(OCC(F)F)C(O)c2ccnc(C(C)C)c2-3)[C@@H](C)C1 (stereo partly drawn) [Example 33]
pIC50: 7.38
//
compound: C=CC(=O)N1C[C@H](C)N(c2nc(=O)n3c4nc(c(F)cc24)-c2c(F)cccc2OCC(O)C(O)c2ccnc(C(C)C)c2-3)C[C@H]1C (stereo partly drawn) [Example 2]
pIC50: 8.70
//
compound: C=CC(=O)N1CCN(c2nc(=O)n3c4nc(c(F)cc24)-c2c(ccc(Cl)c2F)OCC(O)C(OCC)c2ccnc(C(C)C)c2-3)[C@@H](C)C1 (stereo partly drawn) [Example 73]
pIC50: 6.18
//
compound: C=CC(=O)N1CCN(c2nc(=O)n3c4nc(c(F)cc24)-c2c(F)cccc2OCC(O)C(OC)c2ccnc(C(C)C)c2-3)[C@@H](C)C1 (stereo partly drawn) [Example 26]
pIC50: 8.70
//
compound: C=CC(=O)N1CCN(c2nc(=O)n3c4nc(c(F)cc24)-c2c(F)cccc2OCC(OCCF)C(O)c2ccnc(C(C)C)c2-3)[C@@H](C)C1 (stereo partly drawn) [Example 39]
pIC50: 8.40
//
compound: C=CC(=O)N1CCN(c2nc(=O)n3c4nc(c(F)cc24)-c2c(F)cccc2OCC(OC(C)C)C(O)c2ccnc(C(C)C)c2-3)[C@@H](C)C1 (stereo partly drawn) [Example 56]
pIC50: 6.66

----------
# Test system: MIA PaCa-2
# assay_details: Anti-proliferation 2D CTG test (MIA PaCa-2)
# Format: cell-based
# measurement_parameters: MIAPACA-2 cells, 500 cells/well, 5 days incubation with compound, CTG readout

molecule: C=CC(=O)N1CCN(c2nc(=O)n3c4nc(c(F)cc24)-c2c(F)cccc2OCC(OC(C)C)C(O)c2ccnc(C(C)C)c2-3)[C@@H](C)C1 (stereo partly drawn) [Example 55]
IC50: 7 nM

molecule: C=CC(=O)N1CCN(c2nc(=O)n3c4nc(c(F)cc24)-c2c(F)cccc2OCC(O)C(OCCF)c2ccnc(C(C)C)c2-3)[C@@H](C)C1 (stereo partly drawn)
IC50: 5 nM

molecule: C=CC(=O)N1CCN(c2nc(=O)n3c4nc(c(F)cc24)-c2c(ccc(Cl)c2F)OCC(O)C(O)c2ccnc(C(C)C)c2-3)[C@@H](C)C1 (stereo partly drawn) [Example 67]
IC50: 859 nM

----------
Measured pIC50 by item
# Tested on: H358
# assay_details: Anti-proliferation 2D CTG test (H358)
# Assay type: cell-based
# measurement_parameters: H358 cells, 1500 cells/well, 5 days incubation with compound, CTG readout
pIC50: −log10 of the molar value.
endpoint: pIC50

compound: C=CC(=O)N1CCN(c2nc(=O)n3c4nc(c(F)cc24)-c2c(F)cccc2OCC(O)C(O)c2ccnc(C(C)C)c2-3)[C@@H](C)C1 (stereo partly drawn) [Example 1-R]
target_desc: H358
measured: 8.05
//
compound: C=CC(=O)N1CCN(c2nc(=O)n3c4nc(c(F)cc24)-c2c(F)cccc2OCC(OC(C)C)C(O)c2ccnc(C(C)C)c2-3)[C@@H](C)C1 (stereo partly drawn) [Example 34]
target_desc: H358
measured: 8.40
//
compound: C=CC(=O)N1CCN(c2nc(=O)n3c4nc(c(F)cc24)-c2c(F)cccc2OCC(OCC)C(O)c2ccnc(C(C)C)c2-3)[C@@H](C)C1 (stereo partly drawn) [Example 29]
target_desc: H358
measured: 8.22
//
compound: C=CC(=O)N1C[C@H](C)N(c2nc(=O)n3c4nc(c(F)cc24)-c2c(ccc(Cl)c2F)OCC(OCC)C(O)c2ccnc(C(C)C)c2-3)C[C@H]1C (stereo partly drawn) [Example 71]
target_desc: H358
measured: 8.10
//
compound: C=CC(=O)N1CCN(c2nc(=O)n3c4nc(c(F)cc24)-c2c(F)cccc2OCC(O)C(OC(=O)C(N)C(C)C)c2ccnc(C(C)C)c2-3)C(C)C1 (stereo not drawn)
target_desc: H358
measured: 7.96
//
compound: C=CC(=O)N1CCN(c2nc(=O)n3c4nc(c(F)cc24)-c2c(ccc(Cl)c2F)OCC(O)C(O)c2ccnc(C(C)C)c2-3)[C@@H](C)C1 (stereo partly drawn) [Example 66]
target_desc: H358
measured: 8.30
//
compound: C=CC(=O)N1CCN(c2nc(=O)n3c4nc(c(F)cc24)-c2c(F)cccc2OCC(O)C(OCC(F)F)c2ccnc(C(C)C)c2-3)[C@@H](C)C1 (stereo partly drawn) [Example 51]
target_desc: H358
measured: 8.00
//
compound: C=CC(=O)N1C[C@H](C)N(c2nc(=O)n3c4nc(c(F)cc24)-c2c(F)cccc2OCC(O)C(OCC)c2ccnc(C(C)C)c2-3)C[C@H]1C (stereo partly drawn) [Example 35]
target_desc: H358
measured: 7.96
//
compound: C=CC(=O)N1CCN(c2nc(=O)n3c4nc(c(F)cc24)-c2c(F)cccc2OCC(OCC)C(O)c2ccnc(C(C)C)c2-3)[C@@H](C)C1 (stereo partly drawn) [Example 46]
target_desc: H358
measured: 6.58
//
compound: C=CC(=O)N1CCN(c2nc(=O)n3c4nc(c(F)cc24)-c2c(F)cccc2OCC(=O)C(OC(C)=O)c2ccnc(C(C)C)c2-3)[C@@H](C)C1 (stereo partly drawn)
target_desc: H358
measured: 7.60
//
compound: C=CC(=O)N1CCN(c2nc(=O)n3c4nc(c(F)cc24)-c2c(ccc(Cl)c2F)OCC(O)C(OCC)c2ccnc(C(C)C)c2-3)[C@@H](C)C1 (stereo partly drawn) [Example 72]
target_desc: H358
measured: 8.15
//
compound: C=CC(=O)N1C[C@H](C)N(c2nc(=O)n3c4nc(c(F)cc24)-c2c(F)cccc2OCC(O)C(OCC)c2ccnc(C(C)C)c2-3)C[C@H]1C (stereo partly drawn) [Example 57]
target_desc: H358
measured: 7.46
//
compound: C=CC(=O)N1CCN(c2nc(=O)n3c4nc(c(F)cc24)-c2c(F)cccc2OCC(OCC)C(O)c2ccnc(C(C)C)c2-3)[C@@H](C)C1 (stereo partly drawn) [Example 45]
target_desc: H358
measured: 8.70
//
compound: C=CC(=O)N1CCN(c2nc(=O)n3c4nc(c(F)cc24)-c2c(F)cccc2OCC(O)C(OCCF)c2ccnc(C(C)C)c2-3)[C@@H](C)C1 (stereo partly drawn)
target_desc: H358
measured: 7.85
//
compound: C=CC(=O)N1CCN(c2nc(=O)n3c4nc(c(F)cc24)-c2c(F)cccc2OCC(O)C(OCC(F)F)c2ccnc(C(C)C)c2-3)[C@@H](C)C1 (stereo partly drawn) [Example 32]
target_desc: H358
measured: 7.39
//
compound: C=CC(=O)N1CCN(c2nc(=O)n3c4nc(c(F)cc24)-c2c(F)cccc2OCC(OC(C)C)C(O)c2ccnc(C(C)C)c2-3)[C@@H](C)C1 (stereo partly drawn) [Example 55]
target_desc: H358
measured: 8.10
//
compound: C=CC(=O)N1C[C@H](C)N(c2nc(=O)n3c4nc(c(F)cc24)-c2c(ccc(Cl)c2F)OCC(O)C(OCC)c2ccnc(C(C)C)c2-3)C[C@H]1C (stereo partly drawn) [Example 76]
target_desc: H358
measured: 8.40
//
compound: C=CC(=O)N1CCN(c2nc(=O)n3c4nc(c(F)cc24)-c2c(F)cccc2OCC(OCC2CC2)C(O)c2ccnc(C(C)C)c2-3)[C@@H](C)C1 (stereo partly drawn)
target_desc: H358
measured: 8.15
